test: qHTS assay to identify small molecule antagonists of the peroxisome proliferator-activated receptor delta (PPARd) signaling pathway - cell viability counter screen (AID 743213); details: PPARd-bla HEK293H viability, CellTiter-Glo luminescence, 17 h; series mostly up to 62 µM; note: nearly all actives have a fitted effect of over 50% in size
Results filed as inconclusive are left out. The source made the active and inactive calls. Calls come from the whole dose curve; as a rule, active = well fitted cell-killing curve with a large enough effect in the repeat runs; inconclusive = weak or mixed curves; inactive = no such curve, though single readings can be large or run the other way.
Respond only with the outcome that fits, drawn from yes (1) for active, no (0) for inactive

>>> answer_label("c1ccc(Nc2ccccc2)cc1")
"no (0)"

Ask | # fetch the recorded call for `c1ccc2cc(Nc3ccc(Nc4ccc5ccccc5c4)cc3)ccc2c1` here
Reply | no (0)

Ask | # fetch the recorded call for `C[C@]12CC[C@H]3[C@@H](CCC4=CC(=O)CC[C@@]43C)[C@@H]1CC[C@@H]2C(=O)CO` here
Reply | no (0)

Ask | # fetch the recorded call for COc1ccc(OC)c(C(O)CNC(=O)CN)c1 (stereo not drawn) here
Reply | no (0)

Ask | # fetch the recorded call for `CN(C)CCC=C1c2ccccc2CCc2ccccc21` here
Reply | yes (1)

Ask | # fetch the recorded call for `c1cc(-c2ccncc2)ccn1` here
Reply | no (0)

###

experiment: qHTS RealTime-Glo MT Cell Viability Assay in HepG2 cells - 16 hour (AID 1224885); details: RealTime-Glo luminescence; series mostly up to 76.8 µM; note: nearly all actives have a fitted effect of over 50% in size
Inconclusive results are not listed. Activity calls are given as the source filed them. Calls come from the whole dose curve; as a rule, active = well fitted cell-killing curve with a large enough effect in the repeat runs; inconclusive = weak or mixed curves; inactive = flat fitted curve, though single readings scatter.
ASSAY_ENDPOINT: outcome

>>> experimental_result("OC[C@H]1O[C@@H]2O[C@H]3[C@H](O)[C@@H](O)[C@@H](O[C@H]4[C@H](O)[C@@H](O)[C@@H](O[C@H]5[C@H](O)[C@@H](O)[C@@H](O[C@H]6[C@H](O)[C@@H](O)[C@@H](O[C@H]7[C@H](O)[C@@H](O)[C@@H](O[C@H]8[C@H](O)[C@@H](O)[C@@H](O[C@H]1[C@H](O)[C@H]2O)O[C@@H]8CO)O[C@@H]7CO)O[C@@H]6CO)O[C@@H]5CO)O[C@@H]4CO)O[C@@H]3CO")
"inactive"
>>> experimental_result("Clc1nc(Cl)c(Cl)c(Cl)c1Cl")
"inactive"

###

assay: qHTS assay to identify small molecule agonists of the vitamin D receptor (VDR) signaling pathway - cell viability counter screen (AID 743224); settings: VDR-bla HEK293T viability, CellTiter-Glo luminescence, 16 h; series mostly up to 62.6 µM; note: nearly all actives have a fitted effect of over 50% in size
Inconclusive results are not listed. Active and inactive are the calls of the source. Calls follow the shape of the dose curve; as a rule, active = well fitted cell-killing curve with a large enough effect in the repeat runs; inconclusive = weak or mixed curves, or effect the other way; inactive = no such curve, though single readings can be large or run the other way.
Respond only with the outcome that fits, drawn from label 1 for active, label 0 for inactive

Sample answers from the record:
>>> answer_label("COc1ccccc1/C=C/C=O")
"label 0"
>>> answer_label("c1cc(-c2ccncc2)ccn1")
"label 0"
>>> answer_label("Cc1cccc(C(=O)O)c1")
"label 0"
>>> answer_label("CCC(C)c1ccccc1O (stereo not given)")
"label 0"
>>> answer_label("OC[C@H]1O[C@@H]2O[C@H]3[C@H](O)[C@@H](O)[C@@H](O[C@H]4[C@H](O)[C@@H](O)[C@@H](O[C@H]5[C@H](O)[C@@H](O)[C@@H](O[C@H]6[C@H](O)[C@@H](O)[C@@H](O[C@H]7[C@H](O)[C@@H](O)[C@@H](O[C@H]8[C@H](O)[C@@H](O)[C@@H](O[C@H]1[C@H](O)[C@H]2O)O[C@@H]8CO)O[C@@H]7CO)O[C@@H]6CO)O[C@@H]5CO)O[C@@H]4CO)O[C@@H]3CO")
"label 0"
>>> answer_label("CC(C)CC(C)(O)C#CC(C)(O)CC(C)C (stereo not given)")
"label 0"

Ask | # fetch the recorded call for C=C(C)C1CC=C(C)CC1 (stereo not given) here
Reply | label 0

Ask | # fetch the recorded call for `S=C(NC1CCCCC1)NC1CCCCC1` here
Reply | label 1

Ask | # fetch the recorded call for `NNc1ccc(C(=O)O)cc1` here
Reply | label 0

Ask | # fetch the recorded call for CCCCC(CC)COP(=O)(OCC(CC)CCCC)OCC(CC)CCCC (stereo not given) here
Reply | label 0

meta.source: PubChem BioAssay (Tox21)
